All values here come from paper PMC10835127.

# Test system: influenza A H1N1 virus
# CONDITIONS: 22,2 µM peptide, 48 hr post-treatment, A549
No end group written: not given here.
Property: Neuraminidase activity normalized to vehicle; scope: individual substances
QUANTITY KIND: Neuraminidase activity normalized to vehicle

SUBSTANCE: CPEP98: peptide of the viral peptide library; sequence page not shown (PLPPTKAPPIPPPR)
MEASUREMENT TARGET: influenza A H1N1 virus
VALUE REPORTED: 0,9384
--
SUBSTANCE: RHFPRIW [CPEP146]
MEASUREMENT TARGET: influenza A H1N1 virus
VALUE REPORTED: 0,8498
--
SUBSTANCE: KKTKSLP [CPEP75]
MEASUREMENT TARGET: influenza A H1N1 virus
VALUE REPORTED: 0,8062
--
SUBSTANCE: RQARRNRRR [CPEP110]
MEASUREMENT TARGET: influenza A H1N1 virus
VALUE REPORTED: 0,8952
--
SUBSTANCE: SAPCLLKLSTTLLCLEI [CPEP124]
MEASUREMENT TARGET: influenza A H1N1 virus
VALUE REPORTED: 0,6181
--
SUBSTANCE: IVISDSEEE [CPEP121]
MEASUREMENT TARGET: influenza A H1N1 virus
VALUE REPORTED: 1,0096
--
SUBSTANCE: ISNLPYTIKYKIFEQQ [CPEP120]
MEASUREMENT TARGET: influenza A H1N1 virus
VALUE REPORTED: 1,193
--
SUBSTANCE: CMSCCRSSRTRRETQL [CPEP57]
MEASUREMENT TARGET: influenza A H1N1 virus
VALUE REPORTED: 1,1821
--
SUBSTANCE: SEWQRDQFLSQVK [CPEP95]
MEASUREMENT TARGET: influenza A H1N1 virus
VALUE REPORTED: 0,9538
--
SUBSTANCE: TIESEV [CPEP59]
MEASUREMENT TARGET: influenza A H1N1 virus
VALUE REPORTED: 1,0974

###

Recorded measurements of Neuraminidase activity normalized to vehicle, one per entry
# System: influenza A H1N1 virus
# CONDITIONS: 0,823 µM peptide, 48 hr post-treatment, A549
QUANTITY KIND: Neuraminidase activity normalized to vehicle

SUBSTANCE: IQIGNHNAM [CPEP67]
VALUE REPORTED: 0,9632
//
SUBSTANCE: LERVIFPSVKIATLV [CPEP53]
VALUE REPORTED: 0,9211
//
SUBSTANCE: ACTNCYCKKCCFHCQVC [CPEP100]
VALUE REPORTED: 1,092
//
SUBSTANCE: AAAVAFL [CPEP117]
VALUE REPORTED: 0,8345
//
SUBSTANCE: FVKSNWGLF [CPEP101]
VALUE REPORTED: 1,0136
//
SUBSTANCE: CPEP71: viral library peptide from HIV1 Integrase, targets IPO7 (WKGPAKLLWKG)
VALUE REPORTED: 0,7606
//
SUBSTANCE: MSSDLRLTLLELVRRL [CPEP66]
VALUE REPORTED: 1,0081
//
SUBSTANCE: DLYCYEQLNDSSEEEDE [CPEP125]
VALUE REPORTED: 1,0772
//
SUBSTANCE: DILDLWIYHTQGYFPDWQ [CPEP114]
VALUE REPORTED: 1,1783
//
SUBSTANCE: WKSKKTP [CPEP78]
VALUE REPORTED: 0,9859
//
SUBSTANCE: YFADLLI [CPEP50]
VALUE REPORTED: 0,883
